Would you mind telling me the reported inhibition of each entry?
# TARGET ENTITY: Dual specificity protein phosphatase 6 (Homo sapiens)
# EXPERIMENT DESCRIPTION: DUSP6 inhibitors restoring Erk phosphorylation by chemical complementation, primary imaging in DUSP6-transfected HeLa (AID 609);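 also: phospho-Erk level distribution per well compared with pooled transfected vehicle control wells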
# CONDITION LABEL: HeLa MKP-3 transfected, phospho-Erk imaging KS statistic; at 10 µM; stronger effect = higher value; cells stimulated with TPA for 15 min
Field format: number, assumed %, no unit text.

Endpoint output: inhibition of Cc1cc(=O)oc(C)c1C(=O)NCCNC(=O)c1c(C)cc(=O)oc1C . Value?
-14

Endpoint output: inhibition of COc1ccccc1N1CCN(C2CCN(C(=O)c3cc(OC)c(OC)c(OC)c3)CC2)CC1 . Value?
-3.95

Endpoint output: inhibition of CC1(C)Cc2c(c(-c3ccccc3)[nH]c(=O)c2C#N)CS1 . Value?
14.7

Endpoint output: inhibition of Cc1cc(C)n(CC2CC(=O)N(c3ccc(Cl)c(Cl)c3)C2=O)n1 (stereo unspecified) . Value?
12.8

Endpoint output: inhibition of Cc1ccc(S(=O)(=O)N2CCC(N3CCCCCC3)CC2)cc1 . Value?
1.04

Endpoint output: inhibition of Nc1nc(NC(=O)Cc2ccccc2)nn1-c1ccccc1 . Value?
9.42

====

# TARGET ENTITY: Voltage-gated potassium channel subunit beta-2 (Rattus norvegicus) (UniProt P62483)
# Sequence (P62483 whole entry, looked up): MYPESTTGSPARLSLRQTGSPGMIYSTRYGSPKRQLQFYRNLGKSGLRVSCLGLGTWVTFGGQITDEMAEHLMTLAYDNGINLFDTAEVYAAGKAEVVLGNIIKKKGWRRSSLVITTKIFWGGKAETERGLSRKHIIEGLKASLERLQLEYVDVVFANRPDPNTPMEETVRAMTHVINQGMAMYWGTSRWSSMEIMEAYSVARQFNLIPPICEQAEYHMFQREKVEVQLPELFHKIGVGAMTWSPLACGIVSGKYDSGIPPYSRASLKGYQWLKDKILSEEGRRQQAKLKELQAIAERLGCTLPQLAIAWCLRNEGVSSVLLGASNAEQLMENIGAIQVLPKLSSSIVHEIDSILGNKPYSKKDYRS
# EXPERIMENT DESCRIPTION: KvBeta enzyme negative modulators, primary screen, biochemical, NADPH fluorescence (AID 622);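 also: slope of raw intensity against log time taken from 70 to 1610 s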
# CONDITION LABEL: recombinant KvBeta, 4-cyanobenzaldehyde reduction, at 10 µM, stronger effect = higher value
Please note: True applies when fluorescence slope is -0.5 or greater, and False applies otherwise.

Hi team, for COc1cc(OC)cc(C(=O)N2CCC(N3CCCCCC3)CC2)c1 , is the recorded fluorescence slope at or above -0.5?
True

Hi team, for COc1ccc2c(c1OC)C(=O)N1c3ccccc3C(=O)N(c3ccccc3)C21 (configuration not stated) , is the recorded fluorescence slope at or above -0.5?
True

Hi team, for CC(=O)Oc1ccccc1C1OC(=O)c2ccccc2N1C(C)=O (configuration not stated) , is the recorded fluorescence slope at or above -0.5?
True

Hi team, for N#CC1=C(C=Nc2ccccc2O)CCC1 , is the recorded fluorescence slope at or above -0.5?
True

Hi team, for CC(NC(=O)NC(N)=O)(C(F)(F)F)C(F)(F)F , is the recorded fluorescence slope at or above -0.5?
False

Hi team, for CN(C)CCC=C1c2ccccc2CCc2ccccc21 , is the recorded fluorescence slope at or above -0.5?
True

Hi team, for Cc1nnc2n(-c3ccccc3)c(=O)c3c4c(sc3n12)CC(C)CC4 (configuration not stated) , is the recorded fluorescence slope at or above -0.5?
True

Hi team, for CC(CN1c2ccccc2Sc2ccccc21)N(C)C (configuration not stated) , is the recorded fluorescence slope at or above -0.5?
True

Hi team, for COCCNc1cc(C)c(C#N)c2nc3ccccc3n12 , is the recorded fluorescence slope at or above -0.5?
True

Hi team, for COc1ccccc1C1/C(=C(/O)c2ccc(C)cc2)C(=O)C(=O)N1Cc1ccco1 (configuration not stated) , is the recorded fluorescence slope at or above -0.5?
False

====

# TARGET ENTITY: Alpha-2C adrenergic receptor (Homo sapiens)
# EXPERIMENT DESCRIPTION: modulators of alpha2C/GIRK thallium flux, primary screen, cell-based, HEK293 alpha2C/GIRK1/2 (AID 624);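 also: slope of fluorescence ratio to pre-addition baseline per second over 15 to 24 s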
# CONDITION LABEL: thallium flux BTC fluorescence, at 10 µM, actives lie on both sides
Would you mind telling me the reported slope of each entry?
Would you mind answering with just the numeric figure?

Hi! What's the reported slope for Cc1noc(COc2ccccc2OCC(O)CNC(C)(C)C)n1 (stereo unspecified) on Alpha-2C adrenergic receptor (Homo sapiens)?
0.0046

Hi! What's the reported slope for CC(=O)c1c(N)nc2n(c1=O)CCCCC2 on Alpha-2C adrenergic receptor (Homo sapiens)?
0.0044

Hi! What's the reported slope for CCN(CC)CCNc1nc(-c2ccco2)c2c(c1C#N)CC(C)(C)OC2 on Alpha-2C adrenergic receptor (Homo sapiens)?
0.00425

Hi! What's the reported slope for CC(=O)Nc1cccc(NC(=O)CSc2nc(C)c(C)c(C)c2C#N)c1 on Alpha-2C adrenergic receptor (Homo sapiens)?
0.0055

Hi! What's the reported slope for Nc1nonc1-c1noc(N2CCOCC2)n1 on Alpha-2C adrenergic receptor (Homo sapiens)?
0.00528

Hi! What's the reported slope for CC(C)c1nc(N2CCOCC2)c(C#N)c2c1CCC2 on Alpha-2C adrenergic receptor (Homo sapiens)?
0.0055

Hi! What's the reported slope for COC(=O)CC1=C(C(=O)OC)C(c2ccncc2)C(C#N)=C(N)O1 (stereo unspecified) on Alpha-2C adrenergic receptor (Homo sapiens)?
0.00477

Hi! What's the reported slope for CC(C)(C)NCC(=O)c1c[nH]c2ccccc12 on Alpha-2C adrenergic receptor (Homo sapiens)?
0.00435

Hi! What's the reported slope for CC1(C)Cc2c(sc3nc(SCC#N)n(C4CCCCC4)c(=O)c23)CO1 on Alpha-2C adrenergic receptor (Homo sapiens)?
0.0054

Hi! What's the reported slope for O=C(c1ccccc1)C(CCC(CN1CCOCC1)C(=O)c1ccccc1)CN1CCOCC1 (stereo unspecified) on Alpha-2C adrenergic receptor (Homo sapiens)?
0.00635

Hi! What's the reported slope for C[C@H](CCC(=O)O)[C@H]1CC[C@H]2[C@@H]3C(=O)C[C@@H]4CC(=O)CC[C@]4(C)[C@H]3CC(=O)[C@]12C on Alpha-2C adrenergic receptor (Homo sapiens)?
0.00499
